Experimental System: Metabotropic glutamate receptor 3 (Homo sapiens)
Sequence (Q14832 whole entry): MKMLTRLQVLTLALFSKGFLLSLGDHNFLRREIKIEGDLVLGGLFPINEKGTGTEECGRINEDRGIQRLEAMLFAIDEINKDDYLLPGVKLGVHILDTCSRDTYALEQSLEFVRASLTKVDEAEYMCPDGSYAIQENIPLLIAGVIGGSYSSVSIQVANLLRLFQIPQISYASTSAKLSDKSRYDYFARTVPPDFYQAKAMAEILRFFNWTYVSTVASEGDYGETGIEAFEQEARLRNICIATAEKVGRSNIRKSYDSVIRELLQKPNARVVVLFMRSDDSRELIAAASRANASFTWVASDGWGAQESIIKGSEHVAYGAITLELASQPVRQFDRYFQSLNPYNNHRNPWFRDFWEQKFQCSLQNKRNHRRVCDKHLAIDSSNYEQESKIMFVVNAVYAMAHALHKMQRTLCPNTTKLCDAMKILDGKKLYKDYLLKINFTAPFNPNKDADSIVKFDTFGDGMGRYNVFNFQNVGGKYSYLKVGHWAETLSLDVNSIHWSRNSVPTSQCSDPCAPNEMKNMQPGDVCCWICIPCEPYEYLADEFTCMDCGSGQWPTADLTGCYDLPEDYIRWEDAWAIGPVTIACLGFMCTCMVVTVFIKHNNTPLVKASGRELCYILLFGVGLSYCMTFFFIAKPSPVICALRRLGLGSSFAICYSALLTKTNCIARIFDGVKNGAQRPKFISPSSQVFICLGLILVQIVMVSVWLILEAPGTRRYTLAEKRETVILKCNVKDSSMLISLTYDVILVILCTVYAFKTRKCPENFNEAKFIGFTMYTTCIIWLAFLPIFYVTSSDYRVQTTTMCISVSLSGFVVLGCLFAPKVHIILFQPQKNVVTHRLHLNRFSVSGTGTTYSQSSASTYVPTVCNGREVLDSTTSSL
Method Summary: Positive allosteric modulation activity at mGlu3 receptor

- Smiles Entry: "O=C(Nc1ccccn1)[C@]12C[C@H]1/C(=N\\O)c1ccccc1O2"
  EC50: "> 30 µM"

---

Experimental System: Metabotropic glutamate receptor 1 (Homo sapiens, UniProt Q13255)
Sequence (Q13255 whole entry): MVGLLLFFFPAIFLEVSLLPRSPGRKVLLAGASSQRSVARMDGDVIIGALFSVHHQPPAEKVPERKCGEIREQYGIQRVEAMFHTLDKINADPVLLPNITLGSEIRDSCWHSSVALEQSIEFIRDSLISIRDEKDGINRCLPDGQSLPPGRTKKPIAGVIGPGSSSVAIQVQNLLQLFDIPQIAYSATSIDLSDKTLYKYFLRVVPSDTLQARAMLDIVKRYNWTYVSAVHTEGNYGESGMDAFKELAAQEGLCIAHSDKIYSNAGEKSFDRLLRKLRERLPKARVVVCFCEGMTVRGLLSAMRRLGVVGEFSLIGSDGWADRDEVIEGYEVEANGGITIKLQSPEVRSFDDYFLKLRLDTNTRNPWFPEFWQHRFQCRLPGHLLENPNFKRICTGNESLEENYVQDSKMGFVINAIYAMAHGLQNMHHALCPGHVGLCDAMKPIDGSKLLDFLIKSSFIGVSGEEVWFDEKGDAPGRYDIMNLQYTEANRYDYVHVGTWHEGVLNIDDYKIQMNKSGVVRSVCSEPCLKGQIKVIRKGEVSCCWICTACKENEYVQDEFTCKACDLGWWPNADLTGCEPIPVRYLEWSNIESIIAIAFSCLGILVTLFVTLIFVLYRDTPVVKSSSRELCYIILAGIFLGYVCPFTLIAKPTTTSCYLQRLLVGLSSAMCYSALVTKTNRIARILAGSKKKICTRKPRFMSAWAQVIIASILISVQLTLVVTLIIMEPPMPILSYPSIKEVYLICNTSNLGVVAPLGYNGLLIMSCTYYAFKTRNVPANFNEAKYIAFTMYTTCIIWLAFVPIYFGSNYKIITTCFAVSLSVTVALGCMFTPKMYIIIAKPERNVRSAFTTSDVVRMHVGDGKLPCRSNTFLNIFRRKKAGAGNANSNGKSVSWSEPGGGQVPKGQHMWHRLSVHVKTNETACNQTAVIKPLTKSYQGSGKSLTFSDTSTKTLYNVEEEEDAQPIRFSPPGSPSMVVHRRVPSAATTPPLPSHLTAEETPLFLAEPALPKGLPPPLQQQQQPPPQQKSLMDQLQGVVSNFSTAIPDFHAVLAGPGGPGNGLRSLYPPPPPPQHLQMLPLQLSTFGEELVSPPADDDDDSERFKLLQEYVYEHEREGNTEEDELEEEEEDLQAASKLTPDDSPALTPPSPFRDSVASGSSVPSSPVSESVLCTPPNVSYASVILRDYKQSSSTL
Method Summary: Positive allosteric modulation activity at mGlu1 receptor
pEC50: −log10 of the molar value.

- Smiles Entry: "O=C(Nc1ccccn1)[C@]12C[C@H]1/C(=N\\O)c1ccccc1O2"
  pEC50: "< 4.52"

---

Experimental System: Metabotropic glutamate receptor 6 (Homo sapiens)
Sequence (O15303 whole entry): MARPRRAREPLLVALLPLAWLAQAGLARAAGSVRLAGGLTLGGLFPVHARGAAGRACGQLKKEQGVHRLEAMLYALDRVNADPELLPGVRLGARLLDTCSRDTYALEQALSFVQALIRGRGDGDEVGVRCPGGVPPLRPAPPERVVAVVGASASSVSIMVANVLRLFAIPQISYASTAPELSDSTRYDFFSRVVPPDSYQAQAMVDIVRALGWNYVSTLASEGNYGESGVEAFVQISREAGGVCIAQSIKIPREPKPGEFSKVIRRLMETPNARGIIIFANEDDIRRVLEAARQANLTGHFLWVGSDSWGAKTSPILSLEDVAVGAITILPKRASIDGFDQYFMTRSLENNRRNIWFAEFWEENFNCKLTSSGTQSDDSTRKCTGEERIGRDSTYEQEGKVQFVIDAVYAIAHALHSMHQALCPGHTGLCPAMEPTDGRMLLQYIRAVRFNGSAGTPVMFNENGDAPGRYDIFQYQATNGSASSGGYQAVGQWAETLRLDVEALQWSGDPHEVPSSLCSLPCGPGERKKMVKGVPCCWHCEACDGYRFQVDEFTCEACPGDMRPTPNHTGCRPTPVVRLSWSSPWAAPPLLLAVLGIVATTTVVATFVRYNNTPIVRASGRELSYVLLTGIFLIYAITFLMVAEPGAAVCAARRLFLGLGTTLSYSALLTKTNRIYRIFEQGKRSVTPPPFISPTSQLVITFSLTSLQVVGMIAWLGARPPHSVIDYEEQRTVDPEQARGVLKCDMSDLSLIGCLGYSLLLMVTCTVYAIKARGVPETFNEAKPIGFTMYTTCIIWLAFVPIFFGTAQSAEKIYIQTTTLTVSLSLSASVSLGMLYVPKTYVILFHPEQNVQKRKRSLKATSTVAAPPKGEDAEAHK
Method Summary: Positive allosteric modulation activity at mGlu6 receptor
Result Type: EC50

- Smiles Entry: "O=C(Nc1ccccn1)[C@]12C[C@H]1/C(=N\\O)c1ccccc1O2"
  Test Result: "> 30 µM"
